Molecular target: PAK1 (human) (UniProt Q13153)
Sequence (Q13153 whole entry, looked up): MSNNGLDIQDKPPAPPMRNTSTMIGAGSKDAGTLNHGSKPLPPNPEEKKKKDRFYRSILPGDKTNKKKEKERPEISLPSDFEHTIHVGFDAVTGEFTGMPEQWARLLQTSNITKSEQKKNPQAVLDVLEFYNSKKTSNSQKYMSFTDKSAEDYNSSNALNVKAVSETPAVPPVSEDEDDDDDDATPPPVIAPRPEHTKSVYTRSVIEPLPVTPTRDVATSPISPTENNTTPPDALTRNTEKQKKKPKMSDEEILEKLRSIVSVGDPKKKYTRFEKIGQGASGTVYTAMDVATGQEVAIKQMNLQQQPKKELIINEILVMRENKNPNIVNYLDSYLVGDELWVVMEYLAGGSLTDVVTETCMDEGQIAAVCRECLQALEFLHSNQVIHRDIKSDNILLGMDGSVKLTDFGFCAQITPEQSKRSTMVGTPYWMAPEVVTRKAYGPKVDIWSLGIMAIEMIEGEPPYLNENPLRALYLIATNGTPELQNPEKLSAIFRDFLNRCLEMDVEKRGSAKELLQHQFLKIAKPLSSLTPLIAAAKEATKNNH
Assay: Caliper, Mobility shift assay off-chip
Conditions: compound 0.2 µM

{"smilesRepresentation": "COc1cc2c(Oc3ccc4[nH]c(C)cc4c3F)ncnc2cc1OCCCN1CCCC1", "inhibition / %": -3}
{"smilesRepresentation": "CNC(=O)c1cc(Oc2ccc(NC(=O)Nc3ccc(Cl)c(C(F)(F)F)c3)cc2)ccn1", "inhibition / %": 1.1}
{"smilesRepresentation": "Cc1ccc(Nc2nccc(N(C)c3ccc4c(C)n(C)nc4c3)n2)cc1S(N)(=O)=O", "inhibition / %": 1}
{"smilesRepresentation": "CCN(CC)CCNC(=O)c1c(C)[nH]c(/C=C2\\C(=O)Nc3ccc(F)cc32)c1C", "inhibition / %": -2.8}

====

# inhibition per record follows
Target: SIK2 (human)
Assay: Caliper, Mobility shift assay off-chip
Conditions: compound 0.2 µM

{"smilesRepresentation": "COc1cc2c(Oc3ccc4[nH]c(C)cc4c3F)ncnc2cc1OCCCN1CCCC1", "unitsText": "%", "inhibition": 16.5}
{"smilesRepresentation": "Cc1ccc(Nc2nccc(N(C)c3ccc4c(C)n(C)nc4c3)n2)cc1S(N)(=O)=O", "unitsText": "%", "inhibition": 5.7}
{"smilesRepresentation": "CCN(CC)CCNC(=O)c1c(C)[nH]c(/C=C2\\C(=O)Nc3ccc(F)cc32)c1C", "unitsText": "%", "inhibition": 46.8}
{"smilesRepresentation": "CNC(=O)c1cc(Oc2ccc(NC(=O)Nc3ccc(Cl)c(C(F)(F)F)c3)cc2)ccn1", "unitsText": "%", "inhibition": 3}

====

Molecular target: CHEK1 (human) (UniProt O14757)
Sequence (O14757 whole entry, looked up): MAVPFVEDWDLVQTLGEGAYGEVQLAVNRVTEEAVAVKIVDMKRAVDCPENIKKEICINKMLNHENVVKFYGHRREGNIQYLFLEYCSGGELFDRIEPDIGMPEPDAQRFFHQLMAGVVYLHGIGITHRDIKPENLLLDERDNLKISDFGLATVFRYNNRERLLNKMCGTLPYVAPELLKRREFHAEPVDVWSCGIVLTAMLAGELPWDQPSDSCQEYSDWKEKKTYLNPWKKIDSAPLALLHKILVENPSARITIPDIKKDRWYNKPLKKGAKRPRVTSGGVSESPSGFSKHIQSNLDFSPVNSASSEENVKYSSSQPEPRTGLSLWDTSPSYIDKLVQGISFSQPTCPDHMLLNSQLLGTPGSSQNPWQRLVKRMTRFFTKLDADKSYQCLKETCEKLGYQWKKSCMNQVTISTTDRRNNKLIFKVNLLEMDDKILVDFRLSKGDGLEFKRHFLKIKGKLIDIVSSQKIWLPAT
Test: Caliper, Mobility shift assay off-chip
Details: compound 0.02 µM
# inhibition per record follows

{"smilesRepresentation": "Cc1ccc(Nc2nccc(N(C)c3ccc4c(C)n(C)nc4c3)n2)cc1S(N)(=O)=O", "inhibition (%)": 1.8}
{"smilesRepresentation": "CNC(=O)c1ccccc1Sc1ccc2c(/C=C/c3ccccn3)n[nH]c2c1", "inhibition (%)": 0.9}
{"smilesRepresentation": "CNC(=O)c1cc(Oc2ccc(NC(=O)Nc3ccc(Cl)c(C(F)(F)F)c3)cc2)ccn1", "inhibition (%)": -2.7}
{"smilesRepresentation": "COc1cc2c(Oc3ccc4[nH]c(C)cc4c3F)ncnc2cc1OCCCN1CCCC1", "inhibition (%)": -6.2}

====

# inhibition per record follows
Molecular target: UniProt Q15750
Sequence (Q15750 whole entry, looked up): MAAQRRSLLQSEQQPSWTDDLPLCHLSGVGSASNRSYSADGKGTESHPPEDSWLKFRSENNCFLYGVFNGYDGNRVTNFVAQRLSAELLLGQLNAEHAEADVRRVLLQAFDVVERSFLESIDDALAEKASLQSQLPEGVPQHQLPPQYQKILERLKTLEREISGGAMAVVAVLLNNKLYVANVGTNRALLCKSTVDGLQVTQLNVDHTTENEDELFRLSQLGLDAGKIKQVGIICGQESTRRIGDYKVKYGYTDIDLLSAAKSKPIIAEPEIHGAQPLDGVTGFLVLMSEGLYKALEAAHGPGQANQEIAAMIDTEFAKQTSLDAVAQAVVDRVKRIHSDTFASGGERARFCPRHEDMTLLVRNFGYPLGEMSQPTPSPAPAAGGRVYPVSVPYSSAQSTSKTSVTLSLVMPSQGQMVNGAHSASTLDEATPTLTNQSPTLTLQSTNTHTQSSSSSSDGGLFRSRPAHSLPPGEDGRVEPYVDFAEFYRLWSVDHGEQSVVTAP
Assay: Caliper, Mobility shift assay off-chip
Conditions: compound 0.2 µM

{"smilesRepresentation": "Cc1ccc(Nc2nccc(N(C)c3ccc4c(C)n(C)nc4c3)n2)cc1S(N)(=O)=O", "studyTarget": "UniProt Q15750", "unitsText": "%", "inhibition": 6}
{"smilesRepresentation": "CCN(CC)CCNC(=O)c1c(C)[nH]c(/C=C2\\C(=O)Nc3ccc(F)cc32)c1C", "studyTarget": "UniProt Q15750", "unitsText": "%", "inhibition": 83.7}
{"smilesRepresentation": "COc1cc2c(Oc3ccc4[nH]c(C)cc4c3F)ncnc2cc1OCCCN1CCCC1", "studyTarget": "UniProt Q15750", "unitsText": "%", "inhibition": 8.9}
{"smilesRepresentation": "CNC(=O)c1cc(Oc2ccc(NC(=O)Nc3ccc(Cl)c(C(F)(F)F)c3)cc2)ccn1", "studyTarget": "UniProt Q15750", "unitsText": "%", "inhibition": 14.3}
